System: BHK 21 Syrian hamster fibroblast line
EXPERIMENTAL PROTOCOL: DNA, RNA and protein syntheses in BHK monolayers exposed to filtered medium preincubated with Cr compounds;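 note: DNA, RNA and protein synthesis in BHK cultures assessed by incorporation of labelled precursors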
Format: cell-based
CONDITION DESCRIPTION: preincubated 48 h with 0.5 mg/ml; cells exposed 24 h

- COMPOUND: "O=S(=O)([O-])[O-].O=S(=O)([O-])[O-].O=S(=O)([O-])[O-].[Cr+3].[Cr+3] [Chromium sulphate]"
  ASSAY SYSTEM: "BHK 21 Syrian hamster fibroblast line"
  DNA synthesis, preinc. in MEM+BHK: "100 % of controls"
- COMPOUND: "[O]=[Cr](=[O])([O-])[O-].[O]=[Pb].[Pb+2] [Chromium orange, Basic lead chromate]"
  ASSAY SYSTEM: "BHK 21 Syrian hamster fibroblast line"
  DNA synthesis, preinc. in MEM+BHK: "100 % of controls"
- COMPOUND: "[Cl][Cr]([Cl])[Cl] [Chromium chloride]"
  ASSAY SYSTEM: "BHK 21 Syrian hamster fibroblast line"
  DNA synthesis, preinc. in MEM+BHK: "100 % of controls"
- COMPOUND: "[K+].[K+].[O]=[Cr](=[O])([O-])[O][Cr](=[O])(=[O])[O-] [Potassium dichromate]"
  ASSAY SYSTEM: "BHK 21 Syrian hamster fibroblast line"
  DNA synthesis, preinc. in MEM+BHK: "7 % of controls"
